systemTested: human PAH with the R408W mutation (A375 R408W cells) (Homo sapiens, UniProt P00439, R408W)
Construct: expressed in transfected cells
Sequence (P00439 1-452 R408W): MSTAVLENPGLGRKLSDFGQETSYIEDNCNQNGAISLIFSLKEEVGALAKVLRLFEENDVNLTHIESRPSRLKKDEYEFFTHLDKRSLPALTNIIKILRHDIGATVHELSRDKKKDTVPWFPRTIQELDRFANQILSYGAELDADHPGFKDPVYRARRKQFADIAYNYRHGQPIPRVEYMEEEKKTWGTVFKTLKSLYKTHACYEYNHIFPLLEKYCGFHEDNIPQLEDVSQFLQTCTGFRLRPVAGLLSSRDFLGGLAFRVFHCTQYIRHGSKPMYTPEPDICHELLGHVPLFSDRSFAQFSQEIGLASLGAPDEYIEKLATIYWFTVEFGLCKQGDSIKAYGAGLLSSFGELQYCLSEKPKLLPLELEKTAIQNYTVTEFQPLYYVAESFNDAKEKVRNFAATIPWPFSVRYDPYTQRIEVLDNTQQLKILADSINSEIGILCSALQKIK
method: Cell Based Phenylalanine Flux Assay
measurementContext: A375 R408W cells; 24 hrs with compound, then 20 μM sepiapterin and 800 μM 13C9,15N-Phenylalanine for 4 hours; 13C-Tyrosine by LC-MS; average where tested multiple times
Would you mind telling me the reported AC50 of each entry?

Look up AC50: O=C(c1oc(C2(O)CC2)nc1C(F)F)N1CCc2[nH]cnc2[C@@H]1c1nc2cccc(F)c2o1 [Example 213]
500 to 1000 nM

Given Cn1cncc1-c1nc(C(F)F)c(C(=O)N2CCc3[nH]cnc3[C@H]2c2nc3cc(F)ccc3o2)o1 [Example 687] , state its recorded AC50.
500 to 1000 nM

I have this compound here, O=C(c1ocnc1C(F)F)N1CC2(CC2)c2[nH]cnc2[C@@H]1c1nc2cccc(F)c2o1 [Example 912] , and I need its recorded AC50.
500 to 1000 nM

Query (compound): CC(O)c1nc(Cl)c(C(=O)N2CCc3[nH]cnc3[C@@H]2c2nc3cc(F)ccc3o2)o1 (single isomer, unassigned) [Example 233] ; field requested: AC50
1000 to 5000 nM

Which AC50 value belongs to COc1cccc2nc([C@H]3c4nc[nH]c4CCN3C(=O)c3nc(C)nn3C)oc12 [Example 910] ?
≥ 5000 nM

Which value of AC50 has been reported for O=C(c1cnn2cc(N3CCOCC3)c(Cl)cc12)N1CCc2[nH]cnc2[C@@H]1c1nc2cc(F)ccc2o1 [Example 176] in the records?
1000 to 5000 nM

Recorded AC50 of O=C(c1ocnc1C(F)F)N1CCc2[nH]cnc2[C@H]1c1nc2cc(Cl)ccc2o1 [Example 378] , please.
≤ 500 nM

// AC50 lookup, key: CC(C)(O)c1nc(C(F)F)c(C(=O)N2CCc3[nH]cnc3[C@@H]2c2nc3cccc(Br)c3o2)o1 [Example 459]
≤ 500 nM

Tell me the measured AC50 of O=C(c1nnc(-c2cnccn2)o1)N1CCc2[nH]cnc2[C@H]1c1nc2cc(F)ccc2o1 [Example 628] , please.
1000 to 5000 nM

Need AC50 of Cc1ccc2oc([C@@H]3c4nc[nH]c4CCN3C(=O)c3oc(C(C)(C)O)nc3C(F)F)nc2c1 [Example 311] , thanks.
≤ 500 nM

Query: AC50; subject: Cn1ccc(-c2nnc(C(=O)N3CCc4[nH]cnc4[C@@H]3c3nc4ccccc4o3)o2)n1 [Example 844]
500 to 1000 nM

Look up AC50 for this compound: O=C(c1ocnc1CF)N1CCc2[nH]cnc2[C@H]1c1nc2cc(F)ccc2o1 [Example 179]
500 to 1000 nM

Look at this compound and give its reported AC50. Cc1ccc2oc([C@H]3c4nc[nH]c4CCN3C(=O)c3nnc(-c4ccccn4)o3)nc2c1 [Example 98]
1000 to 5000 nM

What does the data say about its AC50? Entry: Cc1cc(F)ccc1-c1nnc(C(=O)N2CCc3[nH]cnc3[C@H]2c2nc3cc(F)ccc3o2)o1 [Example 77]
500 to 1000 nM

Report AC50 for C[C@H](O)c1nc(C(F)F)c(C(=O)N2CCc3[nH]cnc3[C@H]2c2nc3cc(F)ccc3o2)o1 [Example 157] please.
500 to 1000 nM

Recorded AC50 for Cc1ccc2nc([C@H]3c4nc[nH]c4CCN3C(=O)c3nnc(-c4cc[nH]n4)o3)oc2c1 [Example 360] , please?
1000 to 5000 nM

Consider the compound shown here: Cc1ccc2oc([C@@H]3c4nc[nH]c4CCN3C(=O)c3ocnc3C(F)(F)F)nc2c1 [Example 63] What is its recorded AC50?
≤ 500 nM

Reported AC50, compound O=C(c1ocnc1C(F)(F)F)N1CCc2[nH]cnc2[C@H]1c1nc2ccc(F)cc2o1 [Example 161] : ____
≤ 500 nM

Record request: AC50 value, item CC(C)(O)c1nc(C(F)F)c(C(=O)N2CCc3[nH]cnc3[C@@H]2c2nc3c(F)cc(F)cc3o2)o1 [Example 300]
1000 to 5000 nM

Which AC50 is reported for this compound? CN(C)c1cn2ncc(C(=O)N3CCc4[nH]cnc4[C@@H]3c3nc4cc(F)ccc4o3)c2cc1Cl [Example 208]
1000 to 5000 nM

Which AC50 reading was recorded for the compound Cn1nc(C(F)(F)F)nc1C(=O)N1CCc2[nH]cnc2[C@H]1c1nc2ccccc2o1 [Example 683] ?
1000 to 5000 nM

What measured AC50 goes with O=C(c1nnc(-c2ccc(C(F)(F)F)cc2)o1)N1CCc2[nH]cnc2[C@H]1c1nc2cc(F)ccc2o1 [Example 90] ?
500 to 1000 nM

Fill blank: measured AC50 of the compound COc1ccc(-c2nc(C(F)F)c(C(=O)N3CCc4[nH]cnc4[C@H]3c3nc4cccc(F)c4o3)o2)nc1 [Example 616] is ____.
≤ 500 nM

I am curious: what AC50 value has been reported for Cc1cccc2oc([C@H]3c4nc[nH]c4CCN3C(=O)c3nnc(-c4ccccn4)o3)nc12 [Example 481] ?
500 to 1000 nM

Would you kindly share the measured AC50 for CC(C)(O)c1nc(Br)c(C(=O)N2CCc3[nH]cnc3[C@@H]2c2nc3cc(F)ccc3o2)o1 [Example 123] ?
1000 to 5000 nM

Look up AC50 for this compound: COCc1nc(C(F)F)c(C(=O)N2CCc3[nH]cnc3[C@@H]2c2nc3cc(F)ccc3o2)o1 [Example 109]
1000 to 5000 nM

Report AC50 for O=C(c1nnc(-c2ccc(F)cc2F)o1)N1CCc2[nH]cnc2[C@H]1c1nc2cc(F)ccc2o1 [Example 84] please.
≤ 500 nM

Query (compound): Cc1nc(C(C)(C)O)oc1C(=O)N1CCc2[nH]cnc2[C@H]1c1nc2cccc(F)c2o1 [Example 268] ; field requested: AC50
500 to 1000 nM

So what does the record say about AC50 for Cc1ccc2oc([C@H]3c4nc[nH]c4CCN3C(=O)c3nnc(-c4ccn(C)n4)o3)nc2c1 [Example 390] ?
1000 to 5000 nM

Requested field: AC50. Item: Cn1nccc1C(=O)N1CCc2[nH]cnc2[C@@H]1c1nc2ccccc2o1 [Example 712]
1000 to 5000 nM

* * *

systemTested: human PAH with the R408W mutation (A375 R408W cells) (Homo sapiens, UniProt P00439, R408W)
Construct: expressed in transfected cells
method: Cell Based Phenylalanine Flux Assay
measurementContext: A375 R408W cells; 24 hrs with compound, then 20 μM sepiapterin and 800 μM 13C9,15N-Phenylalanine for 4 hours; 13C-Tyrosine by LC-MS; average where tested multiple times
Hi there, I'd appreciate the recorded AC50 for every entry that follows.

Form field: reported AC50 of O=C(c1cnco1)N1CCc2[nH]cnc2[C@H]1c1nc2ccccc2o1
500 to 1000 nM

Need AC50 of Cc1nc(-c2ccn(C)n2)oc1C(=O)N1CCc2[nH]cnc2[C@H]1c1nc2cc(F)ccc2o1 , thanks.
1000 to 5000 nM

I'd like to know its AC50. The compound in question is O=C(c1ocnc1C(F)(F)F)N1CCc2[nH]cnc2[C@H]1c1nc2ccc(Br)cc2o1
≤ 500 nM

# lookup: AC50 of Cc1cccc2nc([C@H]3c4nc[nH]c4CCN3C(=O)c3nnc(-c4cnn(C(F)F)c4)o3)oc12
1000 to 5000 nM

So what's the measured AC50 for this one? Cc1ccc2oc([C@@H]3c4nc[nH]c4CCN3C(=O)c3oc(-c4ccn(C)n4)nc3C(F)F)nc2c1
≤ 500 nM

Fill in: AC50 of CC(C)(O)c1nc(Cl)c(C(=O)N2CCc3[nH]cnc3[C@@H]2c2nc3ccc(F)cc3o2)o1 is ___
≥ 5000 nM

Value lookup for AC50; key = Cn1nccc1-c1nnc(C(=O)N2CCc3[nH]cnc3[C@@H]2c2nc3cc(F)ccc3o2)o1
1000 to 5000 nM

What AC50 value was documented for this compound, O=C(c1ccnn1C(F)F)N1CCc2[nH]cnc2[C@@H]1c1nc2c(F)cccc2o1 ?
1000 to 5000 nM

Please give the measured AC50 for this compound: O=C(c1nnc(-c2ncccc2F)o1)N1CCc2[nH]cnc2[C@H]1c1nc2cccc(F)c2o1
≤ 500 nM

Name the reported AC50 value associated with the compound Cn1nccc1C(=O)N1CCc2[nH]cnc2[C@H]1c1nc2ccccc2o1
1000 to 5000 nM

Fill in the blank: the reported AC50 of O=C(c1ocnc1C(F)F)N1Cc2[nH]cnc2[C@H]1c1nc2ccccc2o1 is ____.
1000 to 5000 nM

Please give the measured AC50 for this compound: COc1cccc2oc([C@H]3c4nc[nH]c4CCN3C(=O)c3ccnn3C(F)F)nc12
1000 to 5000 nM

Quick check: AC50 of O=C(c1cnn2cc(N3CCC(O)CC3)ccc12)N1CCc2[nH]cnc2[C@H]1c1nc2cc(F)cc(F)c2o1 ?
1000 to 5000 nM

Using the record for O=C(c1ccnn1C(F)F)N1CCc2[nH]cnc2[C@H]1c1nc2c(F)cc(F)cc2o1 , report its AC50.
500 to 1000 nM

Return reported AC50; argument: O=C(c1cnn(-c2ccccn2)c1)N1CCc2[nH]cnc2[C@@H]1c1nc2cc(F)ccc2o1
1000 to 5000 nM

Entry COc1ccc(-c2nc(C(F)F)c(C(=O)N3CCc4[nH]cnc4[C@@H]3c3nc4cc(F)ccc4o3)o2)nc1 has what AC50?
≤ 500 nM
